Data provenance: ChEMBL document CHEMBL1124126

- Organism: Gallus gallus
- ASSAY NAME: Relative percent binding to cellular retinoic acid binding protein (CRABP) in chick embryo skin.
Label t when RA is strictly below 90%; at or above that, label f.

Incoming: In the record for CC(/C=C/C=C(C)/C=C/C1=C(C)CCCC1(C)C)=C(C(=O)O)C(=O)O , is RA less than 90%?
Outgoing: t

Incoming: // same read-out, input: CC1=C(/C=C/C(C)=C/C=C/C(C)=C\C(=O)O)C(C)(C)CCC1
Outgoing: f

Incoming: // same read-out, input: CCNC(=O)/C(C(=O)OCC)=C(C)/C=C/C=C(C)/C=C/C1=C(C)CCCC1(C)C
Outgoing: t

Incoming: // same read-out, input: CC1=C(/C=C/C(C)=C/C=C/C(C)=C/C(=O)O)C(C)(C)CCC1
Outgoing: f

Incoming: // same read-out, input: CCNC(=O)/C(C(=O)O)=C(C)/C=C/C=C(C)/C=C/C1=C(C)CCCC1(C)C
Outgoing: t

Incoming: // same read-out, input: CCNC(=O)\C(C(=O)OCC)=C(C)/C=C/C=C(C)/C=C/C1=C(C)CCCC1(C)C
Outgoing: t

Incoming: // same read-out, input: CCOC(=O)C(C(=O)OCC)=C(C)/C=C/C=C(C)/C=C/C1=C(C)CCCC1(C)C
Outgoing: t

Incoming: // same read-out, input: CCNC(=O)\C(C(=O)O)=C(C)/C=C/C=C(C)/C=C/C1=C(C)CCCC1(C)C
Outgoing: t
